- target.or.system: ER in MCF-7 cells (Homo sapiens (Human), UniProt P03372)
- Sequence (P03372 whole entry): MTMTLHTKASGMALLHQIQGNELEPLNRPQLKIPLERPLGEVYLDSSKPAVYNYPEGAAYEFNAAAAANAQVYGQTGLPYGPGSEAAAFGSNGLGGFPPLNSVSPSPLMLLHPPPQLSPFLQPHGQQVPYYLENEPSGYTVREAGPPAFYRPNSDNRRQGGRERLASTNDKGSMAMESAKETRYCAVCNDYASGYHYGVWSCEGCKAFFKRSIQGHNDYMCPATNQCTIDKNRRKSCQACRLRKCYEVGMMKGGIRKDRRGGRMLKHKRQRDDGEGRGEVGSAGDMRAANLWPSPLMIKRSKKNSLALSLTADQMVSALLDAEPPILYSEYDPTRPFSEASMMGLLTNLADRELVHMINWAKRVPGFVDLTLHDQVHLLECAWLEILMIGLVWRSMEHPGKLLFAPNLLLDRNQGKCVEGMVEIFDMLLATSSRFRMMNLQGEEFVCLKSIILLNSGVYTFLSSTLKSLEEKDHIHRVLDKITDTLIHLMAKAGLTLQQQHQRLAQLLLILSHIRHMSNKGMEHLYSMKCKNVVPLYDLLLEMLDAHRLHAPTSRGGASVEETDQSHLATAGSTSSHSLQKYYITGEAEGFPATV
- assay.name: In-cell Western (ICW) ER degradation assay in MCF-7 cells
- Format: cell-based
- assay.context: MCF-7, ER degradation, 16 hrs treatment; read-out: MCF7 DC50
Provide the recorded DC50 for the entries that follow.

Output DC50 of O=C1CC[C@H](N2Cc3c(ccc4c3OC[C@H]3CN(C[C@@H]5COC6(C5)CN(c5ccc([C@@H]7c8ccc(O)cc8CC[C@@H]7c7ccccc7)cc5)C6)CCN43)C2=O)C(=O)N1 (single isomer, unassigned)
< 1 nM

Tell me measured DC50 for `COc1cc(N2CCC3(CC2)CC(CN2CCC4(CC2)COc2c4cc4c(c2Cl)C(=O)N([C@H]2CCC(=O)NC2=O)C4)C3)c(F)cc1[C@@H]1c2ccc(O)cc2CC[C@@H]1c1ccccc1` please.
< 1 nM

Retrieve DC50 measured for COc1cc(N2CCC(CN3CCC(c4ccc(N[C@@H]5CCC(=O)NC5=O)cc4)CC3)CC2)ccc1[C@@H]1c2ccc(O)cc2CC[C@@H]1c1ccccc1 (single isomer, unassigned) and print it.
< 1 nM

Provide only the value of recorded DC50 for O=C1CC[C@H](NC(=O)c2ccc3c(n2)OC[C@H]2CN(C[C@H]4COC5(CCN(c6ccc([C@H]7c8ccc(O)cc8CC[C@H]7c7ccccc7)cc6)CC5)C4)CCN32)C(=O)N1 (single isomer, unassigned)
10 to 100 nM

Please report DC50 for the following molecule: `COc1cc(N2CCC(CN3CCN4c5ccc6c(c5OC[C@H]4C3)CN([C@H]3CCC(=O)NC3=O)C6=O)CC2)c(F)cc1[C@H]1c2ccc(O)cc2CC[C@H]1c1ccccc1`
10 to 100 nM

Input COc1cc(N2CCC3(CC2)CC(CN2CCC4(CC2)COc2c4ccc4c2CN([C@H]2CCC(=O)NC2=O)C4=O)CO3)ccc1[C@H]1c2ccc(O)cc2CC[C@H]1c1ccccc1 (stereo partly drawn) , output reported DC50.
< 1 nM

Given the molecule O=C1CC[C@H](NC(=O)c2ccc3c(n2)OC[C@H]2CN(C[C@@H]4COC5(CCN(c6ccc([C@@H]7c8ccc(O)cc8CC[C@@H]7c7ccccc7)cc6)CC5)C4)CCN32)C(=O)N1 (single isomer, unassigned) , write its reported DC50.
< 1 nM

Read the entry `COc1cc(N2CC(CCN3CCN4c5ccc6c(c5OC[C@H]4C3)CN([C@H]3CCC(=O)NC3=O)C6=O)C2)c(F)cc1[C@@H]1c2ccc(O)cc2CC[C@@H]1c1ccccc1` and write its reported DC50.
1 to 10 nM

Item `COc1cc(N2CCC(CCN3CCC4(CC3)COc3cc5c(cc34)CN([C@H]3CCC(=O)NC3=O)C5=O)CC2)c(F)cc1[C@@H]1c2ccc(O)cc2CC[C@@H]1c1ccccc1` : provide DC50
< 1 nM

Answer with the recorded DC50 for the molecule listed here: O=C1CC[C@H](N2Cc3c(ccc4c3OC[C@H]3CN(C[C@@H]5COC6(CCN(c7ccc([C@@H]8c9ccc(O)cc9CC[C@@H]8c8ccccc8)cn7)CC6)C5)CCN43)C2=O)C(=O)N1 (single isomer, unassigned)
< 1 nM

Look up and report measured DC50 for this entry: `O=C1CC[C@H](N2Cc3c(ccc4c3OCC43CCN(CC4CCC5(CC4)CN(c4ncc([C@@H]6c7ccc(O)cc7CC[C@@H]6c6ccccc6)cn4)C5)CC3)C2=O)C(=O)N1`
< 1 nM

Complete the entry with DC50 for `COc1cc(N2CCC(CCN3CCC4(CC3)COc3c4ccc4c3CN([C@H]3CCC(=O)NC3=O)C4=O)CC2)c(F)cc1[C@@H]1c2ccc(O)cc2CC[C@@H]1c1ccccc1`
< 1 nM

Could you please provide reported DC50 for O=C1CC[C@@H](Nc2ccc(C3CCN(C[C@H]4COC5(CCN(c6ccc([C@@H]7c8ccc(O)cc8CC[C@@H]7c7ccccc7)cc6)CC5)C4)CC3)cc2)C(=O)N1 (single isomer, unassigned) ? Thanks!
> 100 nM

Return value of DC50 for input `COc1cc(N2CCC3(CC2)C[C@H](CN2CCN4c5ccc6c(c5OC[C@H]4C2)CN([C@H]2CCC(=O)NC2=O)C6=O)CO3)c(F)cc1[C@@H]1c2ccc(O)cc2CC[C@@H]1c1ccccc1` , no commentary.
< 1 nM

Recall and state the measured DC50 for COc1cc(N2CCC3(CC2)CC(CN2CCN4c5ccc6c(c5OC[C@H]4C2)CN([C@H]2CCC(=O)N(C)C2=O)C6=O)C3)ccc1[C@@H]1c2ccc(O)cc2CC[C@@H]1c1ccccc1 (single isomer, unassigned) .
1 to 10 nM

Query DC50 for COc1cc(N2CCC3(CC2)CC(CN2CCN4c5ccc(C(=O)N[C@H]6CCC(=O)NC6=O)nc5OCC4C2)C3)ccc1[C@@H]1c2ccc(O)cc2CC[C@@H]1c1ccccc1 (stereo in doubt)
< 1 nM

Look up and report measured DC50 for this entry: `O=C1CC[C@H](N2Cc3c(ccc4c3OC[C@H]3CN(CCCOC5CN(c6ccc([C@@H]7c8ccc(O)cc8CC[C@@H]7c7ccccc7)cc6)C5)CCN43)C2=O)C(=O)N1`
< 1 nM

Report DC50 for O=C1CC[C@H](N2Cc3c(ccc4c3OCC43CCN(CC4CC5COCC(C4)N5c4ccc([C@@H]5c6ccc(O)cc6CC[C@@H]5c5ccccc5)cc4)CC3)C2=O)C(=O)N1 (stereo partly drawn)
< 1 nM

###

So I've got IC50 readings for ERα_LBD (GST) (Homo sapiens (Human)), take a look.

Report the value of IC50 obtained on ERα_LBD (GST) (Homo sapiens (Human)) for `COc1cc(N2CCC(CN3CCN4c5cc6c(cc5OC[C@@H]4C3)C(=O)N([C@H]3CCC(=O)NC3=O)C6)CC2)c(F)cc1[C@@H]1c2ccc(O)cc2CC[C@@H]1c1ccccc1` .
Sequence (P03372 311-547): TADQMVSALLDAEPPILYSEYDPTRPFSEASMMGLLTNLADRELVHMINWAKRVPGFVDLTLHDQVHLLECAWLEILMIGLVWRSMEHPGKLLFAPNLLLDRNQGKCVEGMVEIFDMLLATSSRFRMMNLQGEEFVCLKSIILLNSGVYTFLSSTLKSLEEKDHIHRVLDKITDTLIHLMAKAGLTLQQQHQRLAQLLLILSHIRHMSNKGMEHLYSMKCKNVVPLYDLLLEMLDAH
< 10 nM

Report value: IC50, system: ERα_LBD (GST) (Homo sapiens (Human)), compound: COc1cc(N2CCC3(CC2)C[C@@H](CN2CCN4c5ccc6c(c5OC[C@H]4C2)CN([C@H]2CCC(=O)NC2=O)C6=O)CO3)ccc1[C@@H]1c2ccc(O)cc2CC[C@@H]1c1ccccc1 (single isomer, unassigned)
< 10 nM

Provide measured IC50 on ERα_LBD (GST) (Homo sapiens (Human)) for COc1cc(N2CCC3(CC2)CC(CN2CCN4c5cc6c(cc5OC[C@@H]4C2)C(=O)N([C@H]2CCC(=O)NC2=O)C6)C3)ccc1[C@H]1c2ccc(O)cc2CC[C@H]1c1ccccc1 (single isomer, unassigned) please.
10 to 100 nM

State measured IC50 of the compound COc1cc(N2CCC3(CC2)C[C@H](CN2CCN4c5ccc6c(c5OC[C@H]4C2)CN([C@H]2CCC(=O)NC2=O)C6=O)CO3)ccc1[C@@H]1c2ccc(O)cc2CC[C@@H]1c1ccccc1 (single isomer, unassigned) with ERα_LBD (GST) (Homo sapiens (Human)).
< 10 nM

# assay system ERα_LBD (GST) (Homo sapiens (Human)): give IC50 of O=C1CC[C@H](N2Cc3c(ccc4c3OC[C@H]3CN(CC5COC6(C5)CN(c5ccc([C@H]7c8ccc(O)cc8CC[C@H]7c7ccccc7)cc5)C6)CCN43)C2=O)C(=O)N1 (single isomer, unassigned)
< 10 nM

Report IC50 from ERα_LBD (GST) (Homo sapiens (Human)) testing of `COc1cc(N2CCC(CN3CCN4c5ccc(C(=O)N[C@H]6CCC(=O)NC6=O)nc5OC[C@H]4C3)CC2)c(F)cc1[C@@H]1c2ccc(O)cc2CC[C@@H]1c1ccccc1`
< 10 nM

Report its IC50 with ERα_LBD (GST) (Homo sapiens (Human)) as the test system: `O=C1CC[C@H](N2Cc3cc4c(cc3C2=O)OC[C@@H]2CN(C[C@H]3COC5(C3)CN(c3ccc([C@@H]6c7ccc(O)cc7CC[C@@H]6c6ccccc6)cc3)C5)CCN42)C(=O)N1`
< 10 nM

Look up and report IC50, with ERα_LBD (GST) (Homo sapiens (Human)) as system, for `COC1(CN2CCN3c4ccc5c(c4OC[C@H]3C2)CN([C@H]2CCC(=O)NC2=O)C5=O)CCN(c2ccc([C@@H]3c4ccc(O)cc4CC[C@@H]3c3ccccc3)cc2)CC1`
< 10 nM

Look up ERα_LBD (GST) (Homo sapiens (Human)) data: IC50 of O=C1CC[C@H](N2Cc3cc4c(cc3C2=O)OC[C@H]2CN(C[C@@H]3COC5(CCN(c6ccc([C@@H]7c8ccc(O)cc8CC[C@@H]7c7ccccc7)cc6)CC5)C3)CCN42)C(=O)N1 (single isomer, unassigned) , then report it.
> 100 nM

###

Provide the reported Dmax of each item.
- target.or.system: ER in T47D cells (Homo sapiens (Human), UniProt P03372)
- Sequence (P03372 whole entry): as the sequence (P03372 whole entry) above
- assay.name: In-cell Western (ICW) ER degradation assay in T47D cells
- Format: cell-based
- assay.context: maximal ER degradation, 16 hrs treatment, read-out: T47D Dmax

Give the reported Dmax for this molecule. O=C1CC[C@H](Nc2ccc(C3CCN(C[C@H]4COC5(CCN(c6ccc([C@H]7c8ccc(O)cc8CC[C@H]7c7ccccc7)cc6)CC5)C4)CC3)cc2)C(=O)N1 (single isomer, unassigned)
50 to 75%

Output measured Dmax for this item: COc1nc(C(=O)NC2CCC(=O)NC2=O)ccc1N1CCN(CC2CCN(c3ccc([C@@H]4c5ccc(O)cc5CC[C@@H]4c4ccccc4)cc3)CC2)CC1 (single isomer, unassigned)
25 to 50%

Please report Dmax for the following molecule: COc1cc(N2CCC3(CC2)CC(CN2CCC(c4ccc(N[C@H]5CCC(=O)NC5=O)cc4)CC2)C3)c(F)cc1[C@H]1c2ccc(O)cc2CC[C@H]1c1ccccc1 (single isomer, unassigned)
50 to 75%
